Listing of entries alongside the reported composite z-score.
target: Fibroblast growth factor 2 (Homo sapiens); assay: FGF2 binders on small-molecule microarrays, primary screen, biochemical, small-molecule microarray, 635/667 nm fluorescence (AID 1133); conditions: small-molecule microarray binding, FGF2, fluorescence 635/667; higher = more signal

# Compound string, composite z-score
measured = [
    ("CO[C@H]1COC(=O)CC=C[C@H](C)[C@H](OC)COC(=O)[C@@H](C)NC(=O)CC=C[C@@H]1C", 1.47),
    ("O=C1C=C[C@@H](O)[C@@H]2[C@@H]3C(=O)N(Cc4ccccc4)C(=O)[C@@H]3CC[C@@H]12", 0.484),
    ("CC(=O)OC[C@H]1O[C@H](CC=NOC[C@@H](O)[C@H]2O[C@@H]3OC(C)(C)O[C@@H]3[C@H]2O)C=C[C@@H]1OC(C)=O", 0.583),
    ("O=C1C[C@@H](O)[C@@H](O)[C@@H]2[C@@H]3C(=O)N(Cc4ccccc4)C(=O)[C@@H]3CC[C@H]12", 0.347),
    ("Cc1ccc(C(C)C)n1C(=O)OC(C)(C)C", 0.29),
    ("COc1ccc(O[C@H]2C=C[C@@H](c3ccccc3)O[C@@H]2CON=C(C)CCN2CCCc3nc(C)c(C)cc32)cc1", 0.529),
    ("CC(CCN1CCCCc2nc(C)c(C)cc21)=NOC[C@@H](O)[C@H]1O[C@@H]2OC(C)(C)O[C@@H]2[C@H]1O", 0.937),
    ("COc1ccc(COC(=O)NN=C2C[C@@H](O)[C@@H](O)[C@@H]3[C@@H]4C(=O)N([C@@H](C)c5ccccc5)C(=O)[C@@H]4CC[C@H]23)cc1", -0.509),
    ("O=C1[C@H]2CCn3c(=O)n(-c4ccccc4)c(=O)n3[C@H]2[C@H](O)[C@@H]2O[C@H]12", 0.127),
    ("C#CCCCON=C1C[C@@H](O)[C@@H](O)[C@@H]2[C@@H]3C(=O)N(C[C@@H]4CCCO4)C(=O)[C@@H]3CC[C@H]12", 0.103),
    ("CC(C)CN1CCc2nc(-c3ccccc3)c3c(c2C1)CO[C@@H](C)C3", 0.525),
    ("COC(=O)CC=C[C@@H](C)[C@@H](C=NOC[C@@H](O)[C@H]1O[C@@H]2OC(C)(C)O[C@@H]2[C@H]1O)OC", 0.943),
    ("CC(CCC(=O)OC[C@H]1O[C@H](C#Cc2ccccc2)C=C[C@@H]1Oc1ccc(C)cc1)=NOC[C@@H](C)[C@H](OCc1ccccc1)C(C)C", -0.625),
    ("O=C(NN=C1C[C@@H](O)[C@@H](O)[C@@H]2[C@@H]3C(=O)N(c4ccc(F)cc4F)C(=O)[C@@H]3CC[C@H]12)OCc1ccccc1", 0.0684),
    ("COC(=O)CC=C[C@@H](C)[C@@H](C=NOC[C@@H](C)[C@H](OCc1ccccc1)C(C)C)OC", 0.323),
    ("CCN1C(=O)[C@H]2[C@H]3[C@H](O)[C@H](O)CC(=NOC[C@@H](O)COCc4ccco4)[C@H]3CC[C@H]2C1=O", 1.66),
]

====

test: E. coli acrAB mutant growth effects, primary screen, E. coli filamentation inducers, strain DRC39, OD650, 24 h (AID 1178); settings: higher = more signal, called active from +8 up or from −8 down;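 also: growth measured as culture turbidity by optical density at 650 nm; test concentration not given here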
Endpoint name: z-score

# Compound, Endpoint name, Reading
records = [
    ("CC(=O)OC[C@H]1O[C@@H](ON=C(C)C)[C@H](OC(C)=O)[C@@H](OC(C)=O)[C@@H]1OC(C)=O", "z-score", -0.308),
    ("COc1cccc([C@H]2Oc3ccc(OC)cc3C(=NO[C@@H](C)c3cc(-c4c(C)cc(C)cc4C)no3)[C@@H]2O)c1", "z-score", 0.243),
    ("CCN1C(=O)[C@H]2[C@H]3[C@H](O)[C@H](O)CC(=NOC[C@@H](O)[C@H]4O[C@@H]5OC(C)(C)O[C@@H]5[C@H]4O)[C@@H]3CC[C@H]2C1=O", "z-score", 0.74),
    ("CC(C)[C@@H](OCc1ccccc1)[C@H](C)C=NO[C@H](C)c1cn([C@@H]2COC[C@H]2O)nn1", "z-score", 0.462),
    ("CC(CCN1CCCc2nc(C)c(C)cc21)=NO[C@H](C)c1cn([C@@H]2COC[C@H]2O)nn1", "z-score", 0.973),
    ("COC(=O)[C@H](C)NC(=O)CCC1CC(OC(=O)NCCc2ccc(F)cc2)CC2(CCCC(COC(=O)NCCc3ccccc3OC)O2)O1 (stereo partly specified)", "z-score", 0.636),
]
